Assay read-out IC50; system under study: human CARM1 (PRMT4) (Homo sapiens (Human), UniProt Q86X55).
Sequence (Q86X55 other isoform, or with tags, fused parts or gaps isoform Q86X55-1): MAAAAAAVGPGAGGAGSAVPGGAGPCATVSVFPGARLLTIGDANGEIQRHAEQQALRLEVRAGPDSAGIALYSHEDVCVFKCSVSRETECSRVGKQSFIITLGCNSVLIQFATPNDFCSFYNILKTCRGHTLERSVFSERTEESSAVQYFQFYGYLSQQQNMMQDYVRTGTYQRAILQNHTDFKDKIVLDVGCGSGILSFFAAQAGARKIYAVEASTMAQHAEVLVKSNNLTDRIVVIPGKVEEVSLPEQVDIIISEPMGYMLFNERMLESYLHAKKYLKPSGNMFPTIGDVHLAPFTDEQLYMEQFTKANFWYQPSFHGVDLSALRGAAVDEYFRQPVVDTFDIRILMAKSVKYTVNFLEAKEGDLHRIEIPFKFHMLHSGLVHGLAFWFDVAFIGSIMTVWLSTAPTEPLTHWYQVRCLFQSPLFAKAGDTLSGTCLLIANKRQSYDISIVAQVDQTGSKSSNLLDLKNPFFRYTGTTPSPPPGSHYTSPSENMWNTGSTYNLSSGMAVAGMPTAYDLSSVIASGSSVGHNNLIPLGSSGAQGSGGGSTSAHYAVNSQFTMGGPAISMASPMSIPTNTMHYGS

CNCC(O)COc1cccc(-c2nc(NC3CCCC3)c(C)c(N3CCOCC3)n2)c1 (stereo not shown)
0.1 to 1 µM
CNCC(O)COc1cccc(-c2nc(NCC(F)(F)F)cc(-c3ccc(S(C)(=O)=O)cc3)n2)c1 (stereo not shown)
0.1 to 1 µM
CNCC(O)COc1cccc(-c2nc(N[C@@H]3CCOC3)c(C)c(N3CCC(OCCOC)CC3)n2)c1 (stereo partly shown)
3 to 10 µM
CNCC(O)COc1cccc(-c2nc(Nc3c(C)nn(C)c3C)cc(-c3c(C)noc3C)n2)c1 (stereo not shown)
1 to 3 µM
CNCC(O)COc1cccc(-c2nc(N3CC4(CCOCC4)C3)cc(N(C)C3CCOCC3)n2)c1 (stereo not shown)
0.1 to 1 µM
CNCC(O)COc1cccc(-c2nc(-c3c(C)n[nH]c3C)c(C)c(-c3c(C)noc3C)n2)c1 (stereo not shown)
1 to 3 µM

Proceed to the following item.
Return reported IC50; argument: CNCC(O)COc1cccc(-c2nc(N[C@@H]3CCOC3)c(C)c(N3CCCC3c3nc(C)no3)n2)c1 (stereo partly shown)
0.1 to 1 µM
